Please provide measured pIC50 for the entries that follow.
target-under-test: recombinant RSV complex (Human respiratory syncytial virus A, UniProt P28887)
Sequence (P28887 whole entry): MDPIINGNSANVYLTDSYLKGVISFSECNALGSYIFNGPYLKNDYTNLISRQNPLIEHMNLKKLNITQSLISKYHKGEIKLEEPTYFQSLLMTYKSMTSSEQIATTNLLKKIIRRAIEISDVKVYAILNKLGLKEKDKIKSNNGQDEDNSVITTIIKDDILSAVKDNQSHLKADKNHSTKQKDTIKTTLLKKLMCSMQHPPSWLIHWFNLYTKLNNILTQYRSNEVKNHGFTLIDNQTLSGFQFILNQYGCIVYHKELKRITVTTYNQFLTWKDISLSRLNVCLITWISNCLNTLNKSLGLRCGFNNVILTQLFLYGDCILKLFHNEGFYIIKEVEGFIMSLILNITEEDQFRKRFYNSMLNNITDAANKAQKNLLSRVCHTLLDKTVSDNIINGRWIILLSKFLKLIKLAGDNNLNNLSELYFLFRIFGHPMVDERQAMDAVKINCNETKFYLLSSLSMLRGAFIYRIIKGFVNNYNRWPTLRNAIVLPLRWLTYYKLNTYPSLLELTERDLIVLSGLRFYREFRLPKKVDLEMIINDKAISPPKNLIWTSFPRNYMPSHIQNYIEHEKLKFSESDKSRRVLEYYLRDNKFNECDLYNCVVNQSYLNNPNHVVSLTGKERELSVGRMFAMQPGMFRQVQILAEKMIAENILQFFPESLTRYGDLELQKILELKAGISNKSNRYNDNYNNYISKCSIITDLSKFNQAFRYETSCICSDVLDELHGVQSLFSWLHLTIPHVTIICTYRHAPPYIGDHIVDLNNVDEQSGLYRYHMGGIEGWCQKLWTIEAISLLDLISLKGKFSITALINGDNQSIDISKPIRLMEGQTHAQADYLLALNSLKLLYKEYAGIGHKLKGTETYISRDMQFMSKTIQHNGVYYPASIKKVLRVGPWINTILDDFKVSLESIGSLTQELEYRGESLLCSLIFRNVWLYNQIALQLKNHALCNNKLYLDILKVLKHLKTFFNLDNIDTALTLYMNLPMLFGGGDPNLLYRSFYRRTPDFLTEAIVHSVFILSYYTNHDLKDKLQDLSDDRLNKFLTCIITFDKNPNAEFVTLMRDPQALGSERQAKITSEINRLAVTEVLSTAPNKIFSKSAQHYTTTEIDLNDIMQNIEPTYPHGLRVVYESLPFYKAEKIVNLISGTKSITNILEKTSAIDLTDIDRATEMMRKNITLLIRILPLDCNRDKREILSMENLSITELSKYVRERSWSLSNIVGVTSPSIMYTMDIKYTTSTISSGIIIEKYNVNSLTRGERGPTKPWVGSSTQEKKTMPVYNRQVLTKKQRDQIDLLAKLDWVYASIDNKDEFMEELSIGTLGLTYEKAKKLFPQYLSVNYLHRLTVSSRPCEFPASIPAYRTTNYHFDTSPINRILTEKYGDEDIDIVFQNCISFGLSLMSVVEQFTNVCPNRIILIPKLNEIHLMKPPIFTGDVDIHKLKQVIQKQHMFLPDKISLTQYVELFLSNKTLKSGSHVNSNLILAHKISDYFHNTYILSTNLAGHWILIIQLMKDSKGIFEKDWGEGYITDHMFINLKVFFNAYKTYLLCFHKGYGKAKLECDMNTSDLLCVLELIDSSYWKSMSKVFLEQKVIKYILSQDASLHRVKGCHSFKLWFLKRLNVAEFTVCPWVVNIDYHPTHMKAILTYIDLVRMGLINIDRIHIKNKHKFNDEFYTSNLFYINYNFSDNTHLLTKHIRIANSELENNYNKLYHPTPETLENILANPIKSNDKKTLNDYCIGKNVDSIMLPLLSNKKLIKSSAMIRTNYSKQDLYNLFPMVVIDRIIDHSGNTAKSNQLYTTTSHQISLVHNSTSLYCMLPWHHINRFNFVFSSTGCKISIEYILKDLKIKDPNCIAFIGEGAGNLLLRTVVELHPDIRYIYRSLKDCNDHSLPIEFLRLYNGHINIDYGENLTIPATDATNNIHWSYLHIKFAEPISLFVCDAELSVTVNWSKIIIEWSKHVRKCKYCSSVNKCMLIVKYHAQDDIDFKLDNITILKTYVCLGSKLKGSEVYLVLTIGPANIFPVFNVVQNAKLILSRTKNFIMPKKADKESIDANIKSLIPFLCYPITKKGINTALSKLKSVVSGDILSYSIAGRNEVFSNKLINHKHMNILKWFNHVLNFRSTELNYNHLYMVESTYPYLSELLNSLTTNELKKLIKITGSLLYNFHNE
Sequence (P03421 whole entry, further chain): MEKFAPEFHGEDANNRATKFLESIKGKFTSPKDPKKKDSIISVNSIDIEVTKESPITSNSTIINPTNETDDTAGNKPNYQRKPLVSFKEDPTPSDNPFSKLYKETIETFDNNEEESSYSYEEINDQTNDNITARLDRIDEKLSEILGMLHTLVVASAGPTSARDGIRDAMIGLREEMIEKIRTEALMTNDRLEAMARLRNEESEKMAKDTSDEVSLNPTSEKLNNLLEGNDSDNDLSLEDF
test-method-notes: RSV polymerase inhibition assay
Type: biochemical
experimental-conditions: 10 nM recombinant RSV complex, 2 h at 30° C.; Table E = <1 μM, Table F = <50 μM; read-out: IC50
pIC50: −log10 of the molar value.

Supply measured pIC50 of COc1cc(C(=O)NC[C@@](O)(c2cc3c(c(-c4ccc(F)cc4)n2)NC[C@@]3(C)N)C(F)(F)F)cc2cccnc12 in your reply. > 6.00

Supply measured pIC50 of COc1cc(C(=O)NCC(O)(c2cc3c(c(-c4ccc(F)cc4)n2)OCC3(C)N)C(F)(F)F)cc2c1NC(=O)CC2 (stereo not drawn) in your reply. > 6.00

Supply measured pIC50 of COc1cc(C(=O)NC[C@@](O)(c2cc([C@]3(C)CCN3)cc(-c3ccc(F)cc3)n2)C(F)(F)F)ccc1OC[C@@H](C)O (racemic) in your reply. > 6.00

Supply measured pIC50 of COc1cc(C(=O)NCC(O)(c2cn(C(C)(C)CN)cc(-c3ccc(F)cc3)c2=O)C(F)(F)F)ccc1OCCO (stereo not drawn) in your reply. > 4.30

Supply measured pIC50 of Cn1nc(C(F)(F)F)cc1C(=O)NCC(O)(c1cc2c(c(-c3ccc(F)cc3)n1)OCC2(C)N)C(F)(F)F (stereo not drawn) in your reply. > 6.00

Supply measured pIC50 of COc1cc(C(=O)NCC(O)(c2cc3c(c(-c4ccc(F)cc4)n2)OCC3(C)N)C(F)(F)F)cc2c1NC(=O)C2 (stereo not drawn) in your reply. > 6.00

----------
Tested on: RSV subgenomic replicon 395 HeLa and APC126
test-method-notes: RSV subgenomic replicon assay (Renilla luciferase)
Format: cell-based
experimental-conditions: human respiratory syncytial virus; RSV replicon cells (395 HeLa 7 days or APC126 3 days); Table G = less than 1 μM, Table H = equal to or higher than 1 μM and less than 50 μM
value-type: EC50

Supply measured EC50 of C[C@@H](O)COc1cc(C(=O)NCC(O)(c2cc(C(C)(C)N)cc(-c3ccc(F)cc3)n2)C(F)(F)F)ccc1OC1CC1 (stereo partly drawn) in your reply. < 1000 nM

Supply measured EC50 of COc1cc(C(=O)NC[C@@](O)(c2cc3c(c(-c4ccc(F)cc4)n2)OC[C@@]3(C)NC(N)=O)C(F)(F)F)ccc1OC[C@@H](C)O in your reply. < 1000 nM

Supply measured EC50 of COc1cc(C(=O)NCC(O)(c2cc3c(c(-c4ccc(F)cc4)n2)CCC3(C)N)C(F)(F)F)ccc1OCCO (stereo not drawn) in your reply. < 1000 nM

----------
Test system: RSV subgenomic replicon 395 HeLa and APC126
test-method-notes: RSV subgenomic replicon assay (Renilla luciferase)
Type: cell-based
experimental-conditions: human respiratory syncytial virus; RSV replicon cells (395 HeLa 7 days or APC126 3 days); Table G = less than 1 μM, Table H = equal to or higher than 1 μM and less than 50 μM
pEC50: −log10 of the molar value.
Please provide measured pEC50 for the entries that follow.

Supply measured pEC50 of COc1nc(C(=O)NC[C@@](O)(c2cc3c(c(-c4ccc(F)cc4)n2)OC[C@@]3(C)N)C(F)(F)F)cc2c1NC(=O)C2 in your reply. 4.30 to 6.00

Supply measured pEC50 of CC(C)(N)c1cc(-c2ccc(F)cc2)nc([C@@](O)(CNC(=O)c2ccc(OC3CC3)c(OCCO)c2)C(F)(F)F)c1 in your reply. > 6.00

Supply measured pEC50 of COc1cc(C(=O)NCC(O)(c2cc3c(c(-c4ccc(F)cc4)n2)OCC3(C)N)C(F)(F)F)cc2c1NC(=O)C2=O (stereo not shown) in your reply. 4.30 to 6.00

Supply measured pEC50 of COc1cc(C(=O)NCC(O)(c2cc(C(C)CCN)cc(-c3ccc(F)cc3)n2)C(F)(F)F)ccc1OCCO (stereo not shown) in your reply. > 6.00

Supply measured pEC50 of COc1cc(C(=O)NCC(O)(c2cc3c(c(-c4ccc(F)cc4)n2)OCC3(N)CO)C(F)(F)F)cc2cc[nH]c12 (stereo not shown) in your reply. 4.30 to 6.00

Supply measured pEC50 of C[C@@]1(N)COc2c1cc([C@](O)(CNC(=O)c1cc(OC(F)F)c3[nH]ccc3c1)C(F)(F)F)nc2-c1ccc(F)cc1 in your reply. > 6.00

Supply measured pEC50 of COc1cc(C(=O)NCC(O)(c2cc3c(c(-c4ccc(F)cc4)n2)OCC3(C)N)C(F)(F)F)ccc1OC(C)CO (stereo not shown) in your reply. > 6.00

Supply measured pEC50 of CC1(N)COc2c1cc(C(O)(CNC(=O)c1ccc(CCO)c(OC3CC3)c1)C(F)(F)F)nc2-c1ccc(F)cc1 (stereo not shown) in your reply. > 6.00

Supply measured pEC50 of COc1cc(C(=O)NC[C@@](O)(c2cc3c(c(-c4ccc(F)cc4)n2)OC[C@@]3(C)N)C(F)(F)F)cc(F)c1OC[C@@H](C)O in your reply. > 6.00

Supply measured pEC50 of COc1cc(C(=O)NC[C@@](O)(c2cc([C@]3(C)CCN3)cc(-c3ccc(F)cc3)n2)C(F)(F)F)ccc1OC[C@@H](C)O (racemic) in your reply. > 6.00

Supply measured pEC50 of CC1(N)COc2c1cc(C(O)(CNC(=O)c1ccc(OC3CC3)c(OCCO)c1)C(F)(F)F)nc2-c1ccc(F)cc1 (stereo not shown) in your reply. > 6.00

Supply measured pEC50 of COc1cnc(C(=O)NCC(O)(c2cc3c(c(-c4ccc(F)cc4)n2)OCC3(C)N)C(F)(F)F)cc1OC (stereo not shown) in your reply. > 6.00

Supply measured pEC50 of C[C@@]1(N)CNc2c1cc([C@](O)(CNC(=O)c1ccc3c(c1)CC(=O)N3)C(F)(F)F)nc2-c1ccc(F)cc1 in your reply. > 6.00

Supply measured pEC50 of CC(C)(N)c1cc(-c2ccc(F)cc2)nc(C(N)(CNC(=O)c2ccc(OC3CC3)c(OCCO)c2)C(F)(F)F)c1 (stereo not shown) in your reply. > 6.00

Supply measured pEC50 of COc1cc(C(=O)NCC(O)(c2cc3c(c(-c4ccc(F)cc4)n2)OCC32CCN2)C(F)(F)F)ccc1OC[C@@H](C)O (stereo partly shown) in your reply. 4.30 to 6.00

Supply measured pEC50 of CC1(N)COc2c1cc(C(O)(CNC(=O)c1ccc(OCCO)c(OC3CC3)c1)C(F)(F)F)nc2-c1ccc(F)cc1 (stereo not shown) in your reply. > 6.00

Supply measured pEC50 of COc1cc(C(=O)NC[C@@](O)(c2cc3c(c(-c4ccc(F)cc4)n2)NC[C@@]3(C)N)C(F)(F)F)ccc1OC[C@@H](C)O in your reply. > 6.00

Supply measured pEC50 of COc1ccc(C(=O)NCC(O)(c2cc(C(C)(C)N)cc(-c3ccc(F)cc3)n2)C(F)(F)F)cc1OC[C@@H](C)O (stereo partly shown) in your reply. > 6.00

Supply measured pEC50 of COc1cc(C(=O)NCC(O)(c2cc3c(c(-c4ccc(F)cc4)n2)OCC3(N)CO)C(F)(F)F)cc2cccnc12 (stereo not shown) [Compound 1] in your reply. > 6.00

Supply measured pEC50 of COc1cc(C(=O)NC[C@@](O)(c2cc(C3(C)CCN3)cc(-c3ccc(F)cc3)n2)C(F)(F)F)ccc1OC[C@@H](C)O (single isomer, unassigned) in your reply. > 6.00

Supply measured pEC50 of COc1cc(C(=O)NCC(O)(c2cc(C3(C)CCNCC3)cc(-c3ccc(F)cc3)n2)C(F)(F)F)ccc1OCCO (stereo not shown) in your reply. 4.30 to 6.00

Supply measured pEC50 of COc1nc(C(=O)NCC(O)(c2cc3c(c(-c4ccc(F)cc4)n2)OCC3(C)N)C(F)(F)F)cc2c1NC(=O)C2 (stereo not shown) in your reply. > 6.00
